- System: UniProtKB P19327
- Sequence (P19327 whole entry): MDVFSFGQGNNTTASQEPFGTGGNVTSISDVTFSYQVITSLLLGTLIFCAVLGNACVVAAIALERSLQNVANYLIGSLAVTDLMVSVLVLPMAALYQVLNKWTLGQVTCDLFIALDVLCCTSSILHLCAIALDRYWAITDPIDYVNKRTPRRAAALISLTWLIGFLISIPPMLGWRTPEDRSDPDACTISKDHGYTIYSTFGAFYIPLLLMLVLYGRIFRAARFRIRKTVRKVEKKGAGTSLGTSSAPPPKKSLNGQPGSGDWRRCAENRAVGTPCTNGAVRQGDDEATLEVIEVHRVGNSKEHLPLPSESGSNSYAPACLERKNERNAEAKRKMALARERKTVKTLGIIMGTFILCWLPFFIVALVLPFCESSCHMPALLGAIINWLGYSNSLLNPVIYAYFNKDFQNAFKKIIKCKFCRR
pKi: −log10 of the molar value.
Here's a roundup of pKi values tested on UniProtKB P19327, taken from various published works.
Measurement Type: pKi

| Compound | System | Measurement Type | Result Modifier | Meas Value |
| --- | --- | --- | --- | --- |
| Cn1c(=O)c2c(nc3n(CCCN4CCN(c5cccc(Cl)c5)CC4)ccn23)n(C)c1=O | UniProtKB P19327 | pKi | < | 6.00 |
| O=C(c1ccc(Cl)c(Cl)c1)N1CCC(CNCc2cc(Cl)ccn2)CC1 | UniProtKB P19327 | pKi | = | 8.04 |
| O=c1cc(-c2ccccc2)c2ccc(OCC(O)CN3CCC(c4noc5cc(F)ccc45)CC3)cc2o1 (stereo unspecified) | UniProtKB P19327 | pKi | = | 6.16 |
| CCCNC(=O)c1ccccc1N1CCN(CCCN2C(=O)C3CCCN3C2=O)CC1.Cl (stereo unspecified) | UniProtKB P19327 | pKi | < | 6.00 |
| CN1CCc2cc(NCc3cccc(Cl)c3)c(O)cc2C(c2ccccc2)C1 (racemic) | UniProtKB P19327 | pKi | = | 6.32 |
| COc1ccccc1N1CCN(CCCN2C(=O)NC(c3ccccc3)(C3CC3)C2=O)CC1 (racemic) | UniProtKB P19327 | pKi | = | 7.96 |
